Origin of measurements: ChEMBL document CHEMBL1153263

target: Prostaglandin E2 receptor EP3 subtype (Homo sapiens, UniProt P43115); experiment: Displacement of [3H]PGE2 from human EP3 receptor at 20 uM in presence of 10% human serum
Sequence (P43115 whole entry): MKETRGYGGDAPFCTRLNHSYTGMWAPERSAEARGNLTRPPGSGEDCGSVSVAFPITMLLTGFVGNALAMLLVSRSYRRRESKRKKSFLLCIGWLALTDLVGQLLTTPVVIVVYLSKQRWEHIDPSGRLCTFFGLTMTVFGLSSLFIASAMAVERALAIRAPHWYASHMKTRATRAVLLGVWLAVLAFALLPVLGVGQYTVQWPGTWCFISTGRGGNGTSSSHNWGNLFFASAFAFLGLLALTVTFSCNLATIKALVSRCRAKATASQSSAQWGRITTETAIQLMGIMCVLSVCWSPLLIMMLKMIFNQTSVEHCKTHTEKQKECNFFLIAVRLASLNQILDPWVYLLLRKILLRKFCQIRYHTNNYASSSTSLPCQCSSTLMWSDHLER
Property measured: IC50 (nM)

Previously resolved entries follow.
- Cn1cc(/C=C/C(=O)NS(=O)(=O)c2ccc(F)cc2)c2c(Oc3ccc4ccccc4c3)cccc21: 182
- Cn1cc(/C=C/C(=O)NS(=O)(=O)c2ccc(F)c(F)c2)c2c(Oc3ccc4ccccc4c3)cccc21: 15.9

1: Cn1cc(/C=C/C(=O)NS(=O)(=O)c2ccc(F)cc2F)c2c(Oc3ccc4ccccc4c3)cccc21
2: Cn1cc(/C=C/C(=O)NS(=O)(=O)c2cc(F)c(F)cc2F)c2c(Oc3ccc(Cl)cc3)cccc21
Of 1 versus 2 , which is the one with smaller reported IC50? Give the label under which the chosen entry appears.
1

1: Cn1cc(/C=C/C(=O)NS(=O)(=O)c2cc(F)c(F)cc2F)c2c(Oc3cnc4ccccc4n3)cccc21
2: Cn1cc(/C=C/C(=O)NS(=O)(=O)c2ccc(F)c(F)c2)c2c(Oc3ccc(Cl)c(Cl)c3)cccc21
For the two items 1 and 2 , which reports the higher IC50 value? Give the label under which the chosen entry appears.
1

A: Cn1cc(/C=C/C(=O)NS(=O)(=O)c2ccc(Cl)c(Cl)c2)c2c(Oc3ccc4ccccc4c3)cccc21
B: Cn1cc(/C=C/C(=O)NS(=O)(=O)c2ccc(F)c(F)c2)c2c(Oc3cnc4ccccc4n3)cccc21
For the two items A and B , which reports the higher IC50 value? Give the label under which the chosen entry appears.
B

A: Cn1cc(/C=C/C(=O)NS(=O)(=O)c2cc(F)ccc2F)c2c(Oc3ccc4ccccc4c3)cccc21
B: Cn1cc(/C=C/C(=O)NS(=O)(=O)c2cc(F)c(F)cc2F)c2c(Oc3ccc(F)cc3Cl)cccc21
C: Cn1cc(/C=C/C(=O)NS(=O)(=O)c2cccc(Cl)c2)c2c(Oc3ccc4ccccc4c3)cccc21
D: Cn1cc(/C=C/C(=O)NS(=O)(=O)c2ccccc2Cl)c2c(Oc3ccc4ccccc4c3)cccc21
Sort the molecules on IC50; start with the lowest figure. Respond with an ordered listing of the labels, as requested.
C, A, B, D
